The reported numbers originate from patent US20180250395A1.

# measured_on: T1, Cyno CD47 ECD protein, His-tagged, monomer (cyno)
# T1 construct: extracellular domain; also called cynomolgus CD47
# method: ProteOn SPR; cyno KD / human KD
Provide the reported KD Ratio Cyno/Human of each item.

Per the record, C47B157 (human IgG2sigma) (antibody, V domains shown, HFA variant of C47B116; human IgG2sigma/kappa; also called IgG2 Fc-silent C47B157) VH: QVQLVQSGAEVKKPGASVKVSCKASGYTFTDYNMHWVRQAPGQGLEWMGDIYPYNGGTGYNQKFKGRVTMTRDTSTSTVYMELSSLRSEDTAVYYCARGGWHAMDSWGQGTLVTVSS VL: DIVMTQSPLSLPVTPGEPASISCRSRQSIVHTNRYTYLAWYLQKPGQSPQLLIYKVSNRFSGVPDRFSGSGSGTDFTLKISRVEAEDVGVYYCFQGSHVPYTFGGGTKLEIK has KD Ratio Cyno/Human of 1.1

Entry C47B151 (antibody, V domains shown, HFA variant of C47B116; human IgG2sigma/kappa) VH: QVQLVQSGAEVKKPGSSVKVSCKASGYTFTDYNMHWVRQAPGQGLEWMGDIYPYNGGTGYNQKFKGRVTITADESTSTAYMELSSLRSEDTAVYYCARGGWHAMDSWGQGTLVTVSS VL: DIVMTQSPDSLAVSLGERATINCRSRQSIVHTNRYTYLAWYQQKPGQPPKLLIYKVSNRFSGVPDRFSGSGSGTDFTLTISSLQAEDVAVYYCFQGSHVPYTFGGGTKLEIK — recorded KD Ratio Cyno/Human = 1.4

The binder identified as C47B116 (antibody, human IgG2, V domains shown, hybridoma-derived, chimeric human IgG2 Fc-silent/human kappa; also called parent hybridoma mAb C47B116) VH: EVQLQQSGPELVKPGASVKISCKASGYTFTDYNMHWVKQSHGKSLEWIGDIYPYNGGTGYNQKFKSKATLTVDNSSSTAYMELRSLTSEDSAVYYCARGGWHAMDSWGQGTSVTVSS VL: DVVMTQTPLSLPVSLGDQASISCRSRQSIVHTNRYTYLAWYLQKPGQSPKLLIYKVSNRFSGVPDRFSGSGSGTDFTLKISRVEAEDLGVYYCFQGSHVPYTFGGGTKLEIK registered its KD Ratio Cyno/Human at 0.9

# binder C47B147 (antibody, V domains shown, HFA variant of C47B116; human IgG2sigma/kappa) VH: EVQLVQSGAEVKKPGESLKISCKGSGYTFTDYNMHWVRQMPGKGLEWMGDIYPYNGGTGYNQKFKGQVTISADKSISTAYLQWSSLKASDTAMYYCARGGWHAMDSWGQGTLVTVSS VL: DIVMTQSPDSLAVSLGERATINCRSRQSIVHTNRYTYLAWYQQKPGQPPKLLIYKVSNRFSGVPDRFSGSGSGTDFTLTISSLQAEDVAVYYCFQGSHVPYTFGGGTKLEIK ; its KD Ratio Cyno/Human = 1.4

// sample C47B161 (human IgG2sigma) (antibody, V domains shown, HFA variant of C47B116; human IgG2sigma/kappa; also called IgG2 Fc-silent C47B161) VH: QVQLVQSGAEVKKPGASVKVSCKASGYTFTDYNMHWVRQAPGQRLEWMGDIYPYNGGTGYNQKFKGRVTITRDTSASTAYMELSSLRSEDTAVYYCARGGWHAMDSWGQGTLVTVSS VL: DIVMTQSPLSLPVTPGEPASISCRSRQSIVHTNRYTYLAWYLQKPGQSPQLLIYKVSNRFSGVPDRFSGSGSGTDFTLKISRVEAEDVGVYYCFQGSHVPYTFGGGTKLEIK , its KD Ratio Cyno/Human was 1
